B1: CROP (parent)
chain: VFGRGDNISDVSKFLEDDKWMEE

Variants of: B1
Experiment: protein stability index of a GFP-peptide fusion (GPS, HEK-293T) (PSI 1-6); higher = more stable;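 also: lentivirally expressed fusions sorted by FACS into six bins by GFP to DsRed ratio, PSI derived from sequencing read proportions per bin multiplied by bin number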
Conditions: c terminus: native
# protein stability index values compiled below

{"MUTATION DESCRIPTOR": "E23F", "protein stability index": 3.61}
{"MUTATION DESCRIPTOR": "E16H", "protein stability index": 1.79}
{"MUTATION DESCRIPTOR": "S12C", "protein stability index": 1.73}
{"MUTATION DESCRIPTOR": "R4I", "protein stability index": 1.95}
{"MUTATION DESCRIPTOR": "W20F", "protein stability index": 4.18}
{"MUTATION DESCRIPTOR": "R4G", "protein stability index": 2.16}

// provenance: the supplement of paper PMC10567573
